Data origin, for the record: patent US20090042726A1

# Tested on: Monocotyledonous and dicotyledonous test plants
# procedure_details: Herbicidal action, application pre-emergence (Example B1)
# Type: in vivo
# Design: key: 10=total damage to plant; 0=no damage to plant
# study_conditions: Poa trivialis, 1000 g/ha, evaluated after 9 or 13 days
attribute_measured: POATR herbicidal action (damage score 0-10)
Numbers only.

The cases that follow already have their POATR herbicidal action (damage score 0-10) on record.
| compound | numeric_value |
| --- | --- |
| CCn1ncc(CS(=O)(=O)C2=NOC(C)(C)C2F)n1 (stereo not drawn) | 10 |
| C=CCn1nc(CS(=O)(=O)C2=NOC(C)(C)C2F)c(C(F)(F)F)n1 (stereo not drawn) | 10 |
| Cc1nc(C[S+]([O-])C2=NOC(C)(C)C2F)n(C)n1 (single isomer, unassigned) [8.03] | 8 |
| CC(c1c(C(F)(F)F)nn(C)c1OCC(F)(F)F)S(=O)(=O)C1=NOC(C)(C)C1F (mixture of isomers) | 10 |
| Cc1nc(C[S+]([O-])C2=NOC(C)(C)C2F)n(C)n1 (single isomer, unassigned) [8.02] | 10 |
| Cn1nc(OC(F)F)cc1CS(=O)(=O)C1=NOC(C)(C)C1F (stereo not drawn) | 9 |
| Cc1nn(C)nc1CSC1=NOC(C)(C)C1F (stereo not drawn) | 0 |
| Cn1nc(C[S+]([O-])C2=NOC(C)(C)C2F)c(C(F)(F)F)n1 (stereo not drawn) | 10 |

Would you be so kind as to report POATR herbicidal action (damage score 0-10) for each listed record?
1. Cn1ncc(C[S+]([O-])C2=NOC(C)(C)C2F)n1 (mixture of isomers)
2. COCCn1nc(C[S+]([O-])C2=NOC(C)(C)C2F)c(C(F)(F)F)n1 (mixture of isomers)
3. Cn1cc(C(F)(F)F)c(CSC2=NOC(C)(C)C2F)n1 (stereo not drawn)
4. Cn1nc(C(F)(F)F)cc1CSC1=NOC(C)(C)C1F (stereo not drawn)
5. CCc1nn(C)nc1CS(=O)(=O)C1=NOC(C)(C)C1F (stereo not drawn)
6. Cn1nc(OCC(F)(F)F)c(C[S+]([O-])C2=NOC(C)(C)C2F)c1C(F)(F)F (single isomer, unassigned) [2.42]
7. Cc1nc(C(F)(F)F)ccc1C[S+]([O-])C1=NOC(C)(C)C1F (mixture of isomers)

Ans.
1: 9; 2: 10; 3: 0; 4: 0; 5: 10; 6: 8; 7: 10

----------
# Tested on: Monocotyledonous and dicotyledonous test plants
# procedure_details: Herbicidal action, application pre-emergence (Example B1)
# Type: in vivo
# study_conditions: Poa trivialis, 1000 g/ha, evaluated after 9 or 13 days
attribute_measured: POATR herbicidal action (damage score 0-10)

| compound | result |
| --- | --- |
| Cc1nn(C(C)C)nc1CS(=O)(=O)C1=NOC(C)(C)C1F (stereo not drawn) [7.39] | 8 |

// batch mode: one POATR herbicidal action (damage score 0-10) value per listed entry
1. Cn1nc(C(F)(F)F)c(CS(=O)(=O)C2=NOC(C)(C)C2F)c1OCC(F)(F)F (stereo not drawn) [2.11]
2. CCc1nn(C)nc1CSC1=NOC(C)(C)C1F (stereo not drawn) [Compound No. 7.31]

Ans.
10
0
